# PROTOCOL: qHTS for differential inhibitors of proliferation of Plasmodium falciparum line W2 (AID 1883);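 further: parasites grown with compound for 72 h before lysis and staining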
# RUN_PARAMETERS: Plasmodium falciparum W2 proliferation inhibition; series mostly up to 28.7 µM
Records with an inconclusive call do not appear. The source made the active and inactive calls. The call rests on the fitted dose curve; in most records, active means well fitted curve in the direction sought with a large enough effect; inconclusive means small, poorly fitted or top-dose-only effect, or another doubt; inactive means no such curve, though single readings can be large or run the other way.
API: response.call in T (active), F (inactive)

See these solved cases before continuing.
COMPOUND: O=C1NCN(c2ccccc2)C12CCN(CCCC(c1ccc(F)cc1)c1ccc(F)cc1)CC2
LABEL_CLASS: T

COMPOUND: COc1ccc(CCN(C)CCCC(C#N)(c2cc(OC)c(OC)c(OC)c2)C(C)C)cc1OC (stereo not drawn)
LABEL_CLASS: T

COMPOUND: CCCCCN(CCCCC)C(=O)C(CCC(=O)O)NC(=O)c1ccc(Cl)c(Cl)c1 (stereo not drawn)
LABEL_CLASS: F

COMPOUND: O=C(O)CN(CCN(CC(=O)O)CC(=O)O)CCN(CC(=O)O)CC(=O)O
LABEL_CLASS: F

COMPOUND: COc1cc2c(cc1OC)-c1cc(=Nc3c(C)cc(C)cc3C)n(C)c(=O)n1CC2
LABEL_CLASS: T

COMPOUND: NC(N)=NC(=O)Cc1c(Cl)cccc1Cl
LABEL_CLASS: T

COMPOUND: CCCN1C[C@H](CSC)C[C@@H]2c3cccc4[nH]cc(c34)C[C@H]21
LABEL_CLASS: T

COMPOUND: CN(C(=O)CCCOc1ccc2[nH]c(=O)ccc2c1)C1CCCCC1
LABEL_CLASS: T

Identify the outcome logged in this assay for the compound shown: NS(=O)(=O)c1cc2c(cc1Cl)NC(C1CC3C=CC1C3)NS2(=O)=O (stereo not drawn)
F

Identify the outcome logged in this assay for the compound shown: CCn1ccnc1CC1COc2ccccc2O1 (stereo not drawn)
T

Identify the outcome logged in this assay for the compound shown: CCCCNC(=O)NS(=O)(=O)c1ccc(C)cc1
F

Identify the outcome logged in this assay for the compound shown: CCO/C([O-])=N/c1c[n+](N2CCOCC2)no1
F

Identify the outcome logged in this assay for the compound shown: COCC(=O)O[C@]1(CCN(C)CCCc2nc3ccccc3[nH]2)CCc2cc(F)ccc2[C@@H]1C(C)C
T

* * *

# Tested on: C33A
# PROTOCOL: Primary qHTS to identify gynecologic anti-cancer compounds using libraries of approved drugs and bioactive compounds (AID 1345084); further: nearly all actives have a fitted effect of over 55% in size
# RUN_PARAMETERS: Gynecologic cancer cell panel viability, ATPlite luminescence, 48 h; series mostly up to 57.5 µM
Results filed as inconclusive are left out. The source made the active and inactive calls. Calls follow the shape of the dose curve; as a rule, active = well fitted cell-killing curve with a large enough effect; inconclusive = small, poorly fitted or top-dose-only effect, or effect the other way; inactive = flat fitted curve, though single readings scatter.
API: response.call in active, inactive

See these solved cases before continuing.
MOLECULE: COc1cc(C(=O)OCCCN2CCCN(CCCOC(=O)c3cc(OC)c(OC)c(OC)c3)CC2)cc(OC)c1OC
LABEL_CLASS: inactive

MOLECULE: COc1cc(Cc2cnc(N)nc2N)cc(OC)c1OC
LABEL_CLASS: inactive

MOLECULE: C[N+](C)(C)CCOC(N)=O
LABEL_CLASS: inactive

MOLECULE: CCC(=O)c1ccc2c(c1)N(CCCN(C)C)c1ccccc1S2
LABEL_CLASS: inactive

MOLECULE: CCCCCN(CCCCC)C(=O)C(CCC(=O)O)NC(=O)c1ccc(Cl)c(Cl)c1 (centres undefined)
LABEL_CLASS: inactive

Here's the next entry for you.
Identify the outcome logged in this assay for the molecule shown: FC(F)(F)c1ccccc1-n1ccnc1
inactive
